- measured_on: UniProtKB P50406
- Sequence (P50406 whole entry): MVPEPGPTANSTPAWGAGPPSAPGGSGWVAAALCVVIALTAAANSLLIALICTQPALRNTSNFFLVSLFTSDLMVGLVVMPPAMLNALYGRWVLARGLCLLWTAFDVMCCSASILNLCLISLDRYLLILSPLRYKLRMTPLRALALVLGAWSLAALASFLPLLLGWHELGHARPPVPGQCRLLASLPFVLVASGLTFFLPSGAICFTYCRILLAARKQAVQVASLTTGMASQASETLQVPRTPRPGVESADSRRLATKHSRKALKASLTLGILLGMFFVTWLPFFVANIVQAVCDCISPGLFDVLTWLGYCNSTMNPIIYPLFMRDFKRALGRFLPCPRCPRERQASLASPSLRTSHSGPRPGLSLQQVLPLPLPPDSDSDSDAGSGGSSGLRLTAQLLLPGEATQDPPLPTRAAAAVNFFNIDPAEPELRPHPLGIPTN
- method_notes: Antagonist activity at human recombinant 5HT6 receptor expressed in HEK293 cells assessed as inhibition of 5HT-induced cAMP accumulation at 10 uM pretreated for 10 mins before 5HT addition measured after 1 hr relative to control
- Type: functional, cell-based
endpoint_label: inhibition (%)

{"smiles_text": "CN1CCN(/N=C/c2c(-c3ccccc3)n(S(=O)(=O)c3cccc4ccccc34)c3ccccc23)CC1", "inhibition (%)": 54}
{"smiles_text": "CCCCN(CCCC)c1cccc2c(S(=O)(=O)n3c(C)c(/C=N/N4CCN(C)CC4)c4ccccc43)cccc12", "inhibition (%)": 44.6}
{"smiles_text": "CN1CCN(/N=C/c2c(-c3ccccc3)n(S(=O)(=O)c3ccccc3)c3ccccc23)CC1", "inhibition (%)": 83.5}
{"smiles_text": "CN1CCN(/N=C/c2c(-c3ccccc3)n(S(=O)(=O)c3cccc4c(N(C)C)cccc34)c3ccccc23)CC1", "inhibition (%)": 85.3}
{"smiles_text": "CN1CCN(/N=C/c2c(-c3ccccc3)n(S(=O)(=O)c3cn(C)cn3)c3ccccc23)CC1", "inhibition (%)": 67.4}

A. Cc1c(/C=N/N2CCN(C)CC2)c2ccccc2n1S(=O)(=O)c1ccc([N+](=O)[O-])cc1
B. COc1cc(C)c(Cl)cc1S(=O)(=O)n1c(C)c(/C=N/N2CCN(C)CC2)c2ccccc21
C. CCCCN(CCCC)c1cccc2c(S(=O)(=O)n3c(-c4ccccc4)c(/C=N/N4CCN(C)CC4)c4ccccc43)cccc12
input: Rank the 3 compounds: largest inhibition first, smallest last. Note for the reader: the ranking is given by listing the labels in the order requested.
output: B, A, C
(B: 88.6%, A: 52.4%, C: 21.8%)

a. Cc1ccc(S(=O)(=O)n2c(C)c(/C=N/N3CCN(C)CC3)c3ccccc32)cc1
b. CN1CCN(/N=C/c2c(-c3ccccc3)n(S(=O)(=O)c3ccc(F)cc3)c3ccccc23)CC1
c. CN1CCN(/N=C/c2c(-c3ccccc3)n(S(=O)(=O)c3ccc(I)cc3)c3ccccc23)CC1
input: Order these by inhibition, descending, and give the full ranking. Give me the labels in the order the question wants.
output: b, a, c
